Below is a list of entries, each paired with its recorded GI50 value.
# Tested on: Y79
# assay-explanation: Growth inhibition of human Y79 cells assessed as reduction in cell number after 48 hrs by alamarBlue based fluorescence assay
# Format: functional
# applied-conditions: Y79, 48 h
Record the value in µM, omitting the unit from your answer.

Illustrative cases are given below, each with its answer.
COc1ccc(CC2COc3cc(OC)c(OC)c(OC)c3C2=O)cc1OC(=O)[C@H](Cc1ccccc1)NC(=O)OC(C)(C)C (stereo partly drawn): 12
CCCCNC(=O)N[C@@H](Cc1ccccc1)C(=O)Oc1cc(CC2COc3cc(OC)c(OC)c(OC)c3C2=O)ccc1OC (stereo partly drawn): 64
CCNC(=O)N[C@@H](Cc1ccccc1)C(=O)Oc1cc(CC2COc3cc(OC)c(OC)c(OC)c3C2=O)ccc1OC (stereo partly drawn): 48

query: Return reported GI50. Input compound: C=CCOc1ccc(C[C@H](NC(=O)OC(C)(C)C)C(=O)Nc2cc(CC3COc4cc(OC)c(OC)c(OC)c4C3=O)ccc2OC)cc1 (stereo partly drawn)
result: 2.5

query: Return reported GI50. Input compound: COc1ccc(CC2COc3cc(OC)c(OC)c(OC)c3C2=O)cc1OCc1ccccc1 (stereo not drawn)
result: 20

* * *

# System: Y79
# assay-explanation: Growth inhibition of human Y79 cells assessed as reduction in cell number after 48 hrs by alamarBlue based fluorescence assay
# Assay type: functional
# applied-conditions: Y79, 48 h
reported-metric: GI50 (µM)
Record the value in µM, omitting the unit from your answer.

COc1ccc(/C=C2\COc3cc(OC)c(OC)c(OC)c3C2=O)cc1[N+](=O)[O-]: 2.2
CCN(CC)C(=O)Oc1cc(CC2COc3cc(OC)c(OC)c(OC)c3C2=O)ccc1OC (stereo not given): 24
COC(=O)c1cc(CC2COc3cc(OC)c(OC)c(OC)c3C2=O)ccc1OC (stereo not given): 40

// moving on: another record for GI50
query: Return reported GI50. Input molecule: COc1ccc(CC2COc3cc(OC)c(OC)c(OC)c3C2=O)cc1NC(=O)[C@H](Cc1ccc(OCc2ccccc2)cc1)NC(=O)OC(C)(C)C (stereo not given in full)
result: 0.39

* * *

# assay-explanation: Growth inhibition of human HUVEC cells assessed as reduction in cell number after 48 hrs by alamarBlue based fluorescence assay
Class membership depends on GI50 at 48 h alone; the intervals are L (below 6 µM), M (6 µM to below 20 µM), H (20 µM or more)

Below, 5 compounds whose answers are already recorded.
CC[C@H](C)[C@H](NC(=O)OC(C)(C)C)C(=O)Oc1cc(CC2COc3cc(OC)c(OC)c(OC)c3C2=O)ccc1OC (stereo partly specified): H
COc1ccc(CC2COc3cc(O)c(OC)c(OC)c3C2=O)cc1O (stereo unspecified): H
C=CCOc1ccc(C[C@H](NC(=O)OC(C)(C)C)C(=O)Nc2cc(CC3COc4cc(OC)c(OC)c(OC)c4C3=O)ccc2OC)cc1 (stereo partly specified): L
COc1ccc(CC2COc3cc(OC)c(OC)c(O)c3C2=O)cc1O (stereo unspecified): H
C=CCOc1cc(/C=C2\COc3cc(OC)c(OC)c(OC)c3C2=O)ccc1OC: M

query: Dear colleague, I would appreciate it if you could identify the bin for COc1ccc(CC2COc3cc(OC)c(O)c(O)c3C2=O)cc1O (stereo unspecified) and reply at your convenience.
result: M

query: Dear colleague, I would appreciate it if you could identify the bin for COc1ccc(CC2COc3cc(O)c(OC)c(O)c3C2=O)cc1O (stereo unspecified) and reply at your convenience.
result: L

query: Dear colleague, I would appreciate it if you could identify the bin for COc1ccc(CC2COc3cc(OC)c(OC)c(OC)c3C2=O)cc1OC(=O)[C@H](Cc1ccccc1)NS(=O)(=O)c1ccc(C)cc1 (stereo partly specified) and reply at your convenience.
result: H

query: Dear colleague, I would appreciate it if you could identify the bin for COc1ccc(CC2COc3cc(OC)c(OC)c(OC)c3C2=O)cc1N (stereo unspecified) and reply at your convenience.
result: L

query: Dear colleague, I would appreciate it if you could identify the bin for COc1ccc(CC2COc3cc(OC)c(OC)c(OC)c3C2=O)cc1OC(=O)c1ccccc1 (stereo unspecified) and reply at your convenience.
result: H

query: Dear colleague, I would appreciate it if you could identify the bin for COc1ccc(CC2COc3cc(OC)c(OC)c(OC)c3C2=O)cc1NC(=O)[C@H](Cc1ccc(OCc2ccccc2)cc1)NC(=O)OC(C)(C)C (stereo partly specified) and reply at your convenience.
result: H

query: Dear colleague, I would appreciate it if you could identify the bin for `COc1cc2c(c(OC)c1OC)C(=O)/C(=C/c1ccc(O)c(O)c1)CO2` and reply at your convenience.
result: L

query: Dear colleague, I would appreciate it if you could identify the bin for `COc1ccc(/C=C2\COc3cc(OC)c(OC)c(OC)c3C2=O)cc1F` and reply at your convenience.
result: M

query: Dear colleague, I would appreciate it if you could identify the bin for CCN(CC)C(=O)Oc1cc(CC2COc3cc(OC)c(OC)c(OC)c3C2=O)ccc1OC (stereo unspecified) and reply at your convenience.
result: H

query: Dear colleague, I would appreciate it if you could identify the bin for COc1ccc(CC2COc3cc(OC)c(OC)c(OC)c3C2=O)cc1C(=O)O (stereo unspecified) and reply at your convenience.
result: H

query: Dear colleague, I would appreciate it if you could identify the bin for CCCCNC(=O)N[C@@H](Cc1ccccc1)C(=O)Oc1cc(CC2COc3cc(OC)c(OC)c(OC)c3C2=O)ccc1OC (stereo partly specified) and reply at your convenience.
result: H

query: Dear colleague, I would appreciate it if you could identify the bin for COc1ccc(CC2COc3cc(OC)c(OC)c(OC)c3C2=O)cc1OC(=O)[C@H](CCc1ccccc1)NC(=O)OC(C)(C)C (stereo partly specified) and reply at your convenience.
result: H

query: Dear colleague, I would appreciate it if you could identify the bin for `COc1ccc(/C=C2\COc3cc(OC)c(OC)c(OC)c3C2=O)cc1OCc1ccccc1` and reply at your convenience.
result: M

query: Dear colleague, I would appreciate it if you could identify the bin for CCNC(=O)N[C@@H](Cc1ccccc1)C(=O)Oc1cc(CC2COc3cc(OC)c(OC)c(OC)c3C2=O)ccc1OC (stereo partly specified) and reply at your convenience.
result: H

query: Dear colleague, I would appreciate it if you could identify the bin for COc1ccc(CC2COc3cc(OC)c(OC)c(OC)c3C2=O)cc1OC(=O)CCc1ccccc1 (stereo unspecified) and reply at your convenience.
result: H

query: Dear colleague, I would appreciate it if you could identify the bin for `COc1ccc(/C=C2\COc3cc(OC)c(OC)c(OC)c3C2=O)cc1O` and reply at your convenience.
result: L
